The measured values listed here are drawn from paper PMC7826789.

Give measured Percent Control for each item. Keep answers brief.
system: CDK5; conditions: Compound Concentration (nM):1000;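 note: KINOMEscan scanMAX binding as percent activity remaining versus control; lower means stronger binding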
Quick note: give the figure in %, leave out the unit.

### Prompt Which Percent Control reading was recorded for the molecule Nc1ncnc2occ(-c3ccc(NC(=O)Nc4cc(C(F)(F)F)ccc4F)cc3)c12 [GW770249X] ?
### Response 63

### Prompt Field entry: CN(C)c1cc2c(Nc3ccc4c(cnn4Cc4ccccc4)c3)ncnc2cn1 [GW282974X]
### Response 39

### Prompt Further, for Cl.O=C(Nc1ccc(Oc2ccc3[nH]c(NC(=O)c4ccco4)nc3c2)cc1)Nc1cc(C(F)(F)F)ccc1F [GW683134A] ?
### Response 100

### Prompt Input NS(=O)(=O)c1ccc(Nc2ncc(-c3ccccc3)o2)cc1 [GW572399X]
### Response 100

### Prompt Can you handle CC1=C(C(=O)Nc2ccc3[nH]ncc3c2)C(c2ccc3ccccc3c2)CC(=O)N1 (centres unmarked) [GSK270822A] next?
### Response 100

### Prompt Same lookup for COc1cc2ncnc(Nc3ccc4c(cnn4Cc4ccccc4)c3)c2cc1OC.Cl [GW282449A] , please.
### Response 100

### Prompt Then what about the molecule COc1ccccc1-c1cc(/C=C2\C(=O)Nc3ncc(Br)cc32)cc(Br)c1O [GW442130X] ?
### Response 99

### Prompt # iterate: CCS(=O)(=O)c1ccc(OC)c(Nc2ncc(-c3cccc(F)c3)o2)c1 [GW621970X]
### Response 100
